Hello, the source for this data is patent US6767918B2, in case you need it.

Listed molecules paired with reported melting point

// known answers, use as guide
Prompt: Record request: melting point value, item CC(C)COC(=O)[C@H](C)NC(=O)Cc1ccc(Cl)cc1
Completion: 111 to 113 °C

Prompt: Do the same for CCOC(=O)[C@H](C)NC(=O)Cc1cc(F)cc(F)c1 please
Completion: 93 to 95 °C

Prompt: # repeat for CC(C)COC(=O)[C@H](C)NC(=O)Cc1ccc(Cl)c(Cl)c1
Completion: 81 to 83 °C

Prompt: Next molecule: CC(C)COC(=O)[C@H](C)NC(=O)Cc1ccccc1
Completion: 45 to 47 °C

Continuing:
Prompt: I'd like to know its melting point. The molecule in question is CC(C)COC(=O)[C@H](C)NC(=O)CC1CCCCC1
Completion: 92 to 93 °C

Prompt: What about this molecule? CC(C)COC(=O)C(C)NC(=O)Cc1cccnc1 (racemic)
Completion: 62 to 64 °C

Prompt: One more molecule: CC(C)COC(=O)[C@H](C)NC(=O)Cc1ccc2ccccc2c1
Completion: 128 to 129 °C

Prompt: Try the molecule Cc1ccc(CC(=O)NC(C)C(=O)OCC(C)C)cc1 (racemic)
Completion: 102 to 104 °C

Prompt: What would you report for CC(C)COC(=O)C(C)NC(=O)Cc1ccncc1 (racemic) ?
Completion: 64 to 66 °C

Prompt: Param item: CC(C)COC(=O)[C@H](C)NC(=O)CC1=CCCCC1
Completion: 49 to 51 °C

Prompt: Cool, now CC(C)COC(=O)[C@H](C)NC(=O)CC1CCCC1
Completion: 62 to 64 °C

Prompt: Would you mind doing CC(C)COC(=O)[C@H](C)NC(=O)Cc1cccc2ccccc12 as well?
Completion: 69 to 73 °C
